# Assay: protein stability index of a GFP-peptide fusion (yeast GPS) (PSI 1-4); higher = more stable; sorted into four equal gates, so the index is relative within each strain
# Assay Context: ubr1∆
Property: protein stability index

See these solved cases before continuing.
IQGISKMYSDDTLKDIS [BRN1] : 3.05
PSKKRRRDFGAPANKRP [SMD1] : 3.04

Look at each sequence and report its protein stability index.
1. RGFIKSEGSGSSLVQKG [RPC53]
2. KDHLLLEEEFVSNSEIL [RPT2]
3. HVLKKNPLKNKQVLLRL [RPL4A]
4. DDISRQVARTNLDGTKA [ROX3]
5. DPNIKVNDTVKIDLASG [RPS4A]

[reply]
3.14
2.74
2.38
3.11
2.41
